Data origin, for the record: ChEMBL document CHEMBL5154645

biological target: Cathepsin K (Homo sapiens); test: Inhibition of human recombinant Cathepsin K assessed remaining activity using Z-FR-AMC as substrate incubated for 30 mins by fluorometric assay
Sequence (P43235 whole entry): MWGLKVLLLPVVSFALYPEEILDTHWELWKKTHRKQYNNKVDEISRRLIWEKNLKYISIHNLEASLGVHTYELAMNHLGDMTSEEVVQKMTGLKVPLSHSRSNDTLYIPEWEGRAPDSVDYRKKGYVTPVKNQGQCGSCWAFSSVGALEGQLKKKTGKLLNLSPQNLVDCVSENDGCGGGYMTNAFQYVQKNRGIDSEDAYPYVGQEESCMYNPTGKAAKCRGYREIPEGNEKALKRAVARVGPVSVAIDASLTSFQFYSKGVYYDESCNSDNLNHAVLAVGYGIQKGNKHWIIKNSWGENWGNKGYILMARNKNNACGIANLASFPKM
Let's look at some compounds and their measured IC50.

Worked cases, answers included:
| Compound | IC50 |
| --- | --- |
| COC1=CC(=O)N(C(=O)/C=C/[C@H](C)NC(=O)[C@H](CC(C)C)NC(=O)[C@H](CC2CCCCC2)NC(=O)C2CCN(C)CC2)[C@H]1Cc1c[nH]c2ccccc12 | 0.623 nM |
| COC1=CC(=O)N(C(=O)/C=C/[C@H](C)NC(=O)[C@H](CC(C)C)NC(=O)[C@H](CC(C)C)NC(=O)C2CCN(C)CC2)[C@H]1Cc1c[nH]c2ccccc12 | 17.9 nM |

stdin: Provide only the value of recorded IC50 for COC1=CC(=O)N(C(=O)/C=C/[C@H](CCc2ccccc2)NC(=O)[C@H](CC(C)C)NC(=O)[C@H](CC(C)C)NC(=O)[C@H](C(C)C)N(C)C)[C@H]1Cc1c[nH]c2ccccc12
stdout: 1.5 nM

stdin: Provide only the value of recorded IC50 for COC1=CC(=O)N(C(=O)/C=C/[C@H](C)NC(=O)[C@H](CCc2ccccc2)NC(=O)[C@H](CC2CCCCC2)NC(=O)[C@H](C(C)C)N(C)C)[C@H]1Cc1c[nH]c2ccccc12
stdout: 219 nM

stdin: Provide only the value of recorded IC50 for CC[C@H](C)[C@@H](C(=O)O[C@@H](CC(C)C)C(=O)N[C@@H](CC(C)C)C(=O)N[C@@H](C)/C=C/C(=O)N1C(=O)C=C(OC)[C@@H]1C)N(C)C [GALLINAMIDE A]
stdout: 79.6 nM
